- Tested on: rodent lifetime carcinogenesis bioassay, tumor incidence TD50
- TEST_PROTOCOL: carcinogenic potency in animals, long-term in vivo studies, CPDB compilation (AID 1745844)
- CONDITION_SUMMARY: mouse; strain B6C3F1; males; in feed; site: lung; lesion: alveolar/bronchiolar adenoma + alveolar/bronchiolar carcinoma; dosed 103 weeks; study length 103 weeks
Assignment: determine reported TD50 for the given compounds.
Answers are plain numbers, in mg/kg/day.

COMPOUND	REPORTED_MEASUREMENT
CN(C)C(=O)Nc1cccc(C(F)(F)F)c1	1420
CNC(=O)ON=CC(C)(C)SC	14.8
CCOC(=O)CC(SP(=O)(OC)OC)C(=O)OCC (centres undefined)	3230

As a next step, examine the compound that follows.
// Input: COc1ccc([N+](=O)[O-])cc1N=Nc1c(O)c(C(=O)Nc2cccc([N+](=O)[O-])c2)cc2ccccc12 . Output its TD50 only. 112000
